- Measured target: Dihydroorotate dehydrogenase (Plasmodium falciparum, UniProt Q54A96)
- Sequence (Q54A96 whole entry): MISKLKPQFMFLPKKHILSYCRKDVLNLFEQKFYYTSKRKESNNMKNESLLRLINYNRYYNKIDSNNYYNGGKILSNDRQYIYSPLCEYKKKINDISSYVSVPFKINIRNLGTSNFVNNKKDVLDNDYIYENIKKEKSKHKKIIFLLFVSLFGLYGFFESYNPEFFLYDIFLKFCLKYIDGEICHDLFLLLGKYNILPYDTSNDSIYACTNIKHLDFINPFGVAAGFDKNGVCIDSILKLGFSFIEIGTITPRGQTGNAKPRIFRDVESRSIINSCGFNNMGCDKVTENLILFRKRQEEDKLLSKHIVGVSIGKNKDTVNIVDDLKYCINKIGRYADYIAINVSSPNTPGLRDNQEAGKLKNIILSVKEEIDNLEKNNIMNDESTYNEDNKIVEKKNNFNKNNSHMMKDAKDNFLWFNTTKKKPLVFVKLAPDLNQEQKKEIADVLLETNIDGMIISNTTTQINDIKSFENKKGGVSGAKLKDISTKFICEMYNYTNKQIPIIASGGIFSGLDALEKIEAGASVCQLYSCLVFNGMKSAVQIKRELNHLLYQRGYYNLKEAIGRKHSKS
pIC50: −log10 of the molar value.
Measured metric: pIC50

Smiles notation	Value qualifier	Readout value
CCOC(=O)C1=C(Nc2ccc(C)c(C)c2)OCC1=O	=	6.16
CCOC(=O)C1=C(Nc2ccc(Cl)c(C(F)(F)F)c2)SCC1=O	=	6.12
Cc1ccc(NC2=C(C(=O)NC3CC3)C(=O)CS2)cc1C	=	4.72
CCOC(=O)C1=C(Nc2ccc3cc4ccccc4cc3c2)SCC1=O	=	6.71
CCOC(=O)C1=C(Nc2ccc3ccccc3c2)SCC1=O	=	7.70
CCOC(=O)C1=C(Nc2ccc3ccccc3c2)OCC1=O	=	8.22
Cc1ccc(NC2=C(C(=O)OCC3CC3)C(=O)CS2)cc1C	=	5.38
CCOC(=O)C1=C(Nc2ccc3c(c2)CCC3)OCC1=O	=	7.19
CCOC(=O)C1=C(Nc2ccc(C)c(F)c2)SCC1=O	=	6.27
CCCOC(=O)C1=C(Nc2ccc(C)c(C)c2)SCC1=O	=	5.39
CCOC(=O)C1=C(Nc2ccc(Br)c(C(F)(F)F)c2)SCC1=O	=	5.79
CCOC(=O)C1=C(Nc2ccc(C(C)(C)C)cc2)SCC1=O	=	6.64
CCCNC(=O)C1=C(Nc2ccc(C)c(C)c2)SCC1=O	=	5.33
CCCNC(=O)C1=C(Nc2ccc3ccccc3c2)SCC1=O	<	4.30

* * *

- Tested on: Plasmodium falciparum
- Assay explanation: microbe, parasite or virus in culture
- Details: Dd2, 72 h
- Description: Antiplasmodial activity against chloroquine-resistant Plasmodium falciparum Dd2 infected in erythrocytes assessed as parasite growth inhibition after 72 hrs by SYBR green 1 dye-based fluorometric analysis
Measured metric: log10 IC50 (log10 of the value in nM)

Smiles notation	log10 IC50
CCOC(=O)C1=C(Nc2cnc3ccccc3c2)SCC1=O	2.46
CCOC(=O)C1=C(Nc2ccc(C)c(C)c2)OCC1=O	2.69
CCOC(=O)C1=C(Nc2ccc3ccccc3c2)SCC1=O	1.76
CCCOC(=O)C1=C(Nc2ccc3ccccc3c2)SCC1=O	3.22
CCOC(=O)C1=C(Nc2ccccc2)SCC1=O	3.82
CCOC(=O)C1=C(Nc2ccc(C(C)(C)C)cc2)SCC1=O	2.88
CCCCNC(=O)C1=C(Nc2ccc3ccccc3c2)SCC1=O	3.61
